Hey, just so you know, these numbers are from paper PMC4311240.

Task for the reader: assign each of the following molecules its reported remaining at 24 h, 50 μM.
test system: trypsin; assay: Protease stability assay, trypsin; format: in vitro ADME; conditions: 100 mM NH4HCO3 buffer pH 8, 50 μM, 37°C, RP-HPLC at 254 nm, triplicates, read-out: peptidomimetic intact after 24 h with trypsin
Non-standard residues stand in square brackets, D forms with d. Residues, ends and D or L forms follow the SMILES beside them. *: point of attachment. Acetyl(thymin-1-yl) = Cc1cn(CC(=O)*)c(=O)[nH]c1=O; Sar = CNCC(=O)O

[in] Output measured remaining at 24 h, 50 μM for this item: Cc1cn(CC(=O)N(C)CC(=O)N[C@@H](CC(C)C)C(=O)N(C)CC(=O)N[C@@H](Cc2ccccc2)C(=O)N(C)CC(=O)N[C@@H](C)C(N)=O)c(=O)[nH]c1=O [P4] ({Acetyl(thymin-1-yl)}-[Sar]L[Sar]F[Sar]A-NH2)
[out] > 90%

[in] Output measured remaining at 24 h, 50 μM for this item: Cc1cn(CC(=O)N[C@@H](CCCCN)C(=O)N(C)CC(=O)N[C@H](C(=O)N(C)CC(=O)N[C@@H](Cc2ccccc2)C(=O)N(C)CC(N)=O)C(C)C)c(=O)[nH]c1=O [P5] ({Acetyl(thymin-1-yl)}-K[Sar]V[Sar]F[Sar]-NH2)
[out] > 90%
